Test system: V79
Test: Antiproliferative activity against Chinese hamster V79 cells transfected with Escherichia coli nitroreductase nfsB assessed as reduction in cell number after 72 hrs
Type: functional, cell-based
Settings: Cricetulus griseus, V79, 72 h
measurement.type: pIC50
Quick note: pIC50 values are minus log10 of concentrations in mol/L.

Query string: Request the reported pIC50 associated with C[C@@H](OP(N)(=O)N(CCCl)CCCl)c1ccc([N+](=O)[O-])cc1 (some centres undefined)
Result string: 8.70

Query string: What do we get for NP(=O)(OCc1cccc([N+](=O)[O-])c1)N(CCCl)CCCl (centres undefined) ?
Result string: 6.59

Query string: What about COC(=O)c1cc(COP(N)(=O)N(CCCl)CCCl)ccc1[N+](=O)[O-] (centres undefined) ?
Result string: 7.00

Query string: Can you handle NP(=O)(OCc1ccccc1[N+](=O)[O-])N(CCCl)CCCl (centres undefined) next?
Result string: 6.74

Query string: And then C[C@H](OP(N)(=O)N(CCCl)CCCl)c1ccc([N+](=O)[O-])cc1 (some centres undefined) , what is it?
Result string: 8.70

Query string: COc1cc(COP(N)(=O)N(CCCl)CCCl)ccc1[N+](=O)[O-] (centres undefined) , same question.
Result string: 8.52

Query string: Same lookup for NP(=O)(OCc1ccc([N+](=O)[O-])cn1)N(CCCl)CCCl (centres undefined) , please.
Result string: 8.05

Query string: Request: NC(=O)c1cc([N+](=O)[O-])ccc1COP(N)(=O)N(CCCl)CCCl (centres undefined)
Result string: 7.40

Query string: // next record Cc1cc(COP(N)(=O)N(CCCl)CCCl)ccc1[N+](=O)[O-] (centres undefined)
Result string: 8.52

----------
Tested on: V79
Assay: Ratio of IC50 for Chinese hamster V79 cells to IC50 for Chinese hamster V79 cells transfected with Escherichia coli nitroreductase nfsB
Parameters: species or system Cricetulus griseus
measurement.type: Ratio IC50

Query string: Requested field: Ratio IC50. Item: NC(=O)Cc1cc([N+](=O)[O-])ccc1COP(N)(=O)N(CCCl)CCCl (centres undefined)
Result string: >2000

Query string: Now consider NP(=O)(OCc1cccc([N+](=O)[O-])c1)N(CCCl)CCCl (centres undefined) .
Result string: >385

Query string: Can you handle NC(=O)c1cc(COP(N)(=O)N(CCCl)CCCl)ccc1[N+](=O)[O-] (centres undefined) next?
Result string: >3330

Query string: Same question, NP(=O)(OCc1ccccc1[N+](=O)[O-])N(CCCl)CCCl (centres undefined) this time
Result string: >556

----------
Can you tell me pIC50 for the items I'm about to list?
Tested on: SK-OV-3
Assay: Antiproliferative activity against human SKOV3 cells after 18 hrs assessed as reduction in cell number
Format: functional, cell-based
Conditions: SK-OV-3, 18 h
pIC50: −log10 of the molar value.

Query string: If you can, please state the reported pIC50 value of NC(=O)c1cc(COP(N)(=O)N(CCCl)CCCl)ccc1[N+](=O)[O-] (stereo unspecified) .
Result string: < 3.00

Query string: How about this compound: NC(=O)c1cc([N+](=O)[O-])ccc1COP(N)(=O)N(CCCl)CCCl (stereo unspecified)
Result string: < 4.00

Query string: NC(=O)Cc1cc([N+](=O)[O-])ccc1COP(N)(=O)N(CCCl)CCCl (stereo unspecified) ?
Result string: < 4.00

Query string: Now try C[C@H](OP(N)(=O)N(CCCl)CCCl)c1ccc([N+](=O)[O-])cc1 (stereo partly specified) .
Result string: < 3.00

Query string: Quick one: NP(=O)(OCc1ccccc1[N+](=O)[O-])N(CCCl)CCCl (stereo unspecified)
Result string: < 3.00

Query string: Lookup C[C@@H](OP(N)(=O)N(CCCl)CCCl)c1ccc([N+](=O)[O-])cc1 (stereo partly specified)
Result string: < 3.00
